Biological target: THRβ-LBD (Homo sapiens)
Assay: THR coactivator recruitment assay (LanthaScreen TR-FRET), THRβ
observation.type: EC50

Please fill in: EC50 reported for C[C@@H]1CCc2c(Oc3c(Cl)cc(-n4nc(C#N)c(=O)[nH]c4=O)cc3Cl)n[nH]c(=O)c21 (single isomer, unassigned) [Example 41] = < 100 nM

Please fill in: EC50 reported for CC(C)c1cc(Oc2c(Cl)cc(-n3nc(C#N)c(=O)[nH]c3=O)cc2Cl)ncn1 [Example 48] = 100 to 1000 nM

Please fill in: EC50 reported for [2H]C([2H])([2H])[C@@H]1CCc2c(Oc3c(Cl)cc(-n4nc(C#N)c(=O)[nH]c4=O)cc3Cl)n[nH]c(=O)c21 (single isomer, unassigned) [Example 51] = < 100 nM

* * *

Could you please report measured THRβ Bmax % (vs T3) for the items listed next?
Molecular target: UniProtKB P10828
Assay: THR coactivator recruitment assay (LanthaScreen TR-FRET), THRβ
Details: maximum activity relative to the maximum activity of 500 nM T3
Kindly provide the numeric value in % only, without the unit symbol.

Please fill in: THRβ Bmax % (vs T3) reported for "COc1nnc(Oc2c(Cl)cc(-n3nc(C#N)c(=O)[nH]c3=O)cc2Cl)cc1C(C)C" = 10

Please fill in: THRβ Bmax % (vs T3) reported for "Cc1c(C(C)C)c(Oc2c(Cl)cc(-n3nc(C#N)c(=O)[nH]c3=O)cc2Cl)n[nH]c1=O" = 0

Please fill in: THRβ Bmax % (vs T3) reported for "CC(C)c1cc(Oc2c(Cl)cc(-n3nc(C#N)c(=O)[nH]c3=O)cc2Cl)nnc1Cl" = 7

Please fill in: THRβ Bmax % (vs T3) reported for "Cc1c(Oc2c(Cl)cc(-n3nc(C#N)c(=O)[nH]c3=O)cc2Cl)n[nH]c(=O)c1C(C)C" = 27

* * *

Molecular target: THRβ-LBD (Homo sapiens, UniProt P10828)
Sequence (P10828 217-461 limits assumed): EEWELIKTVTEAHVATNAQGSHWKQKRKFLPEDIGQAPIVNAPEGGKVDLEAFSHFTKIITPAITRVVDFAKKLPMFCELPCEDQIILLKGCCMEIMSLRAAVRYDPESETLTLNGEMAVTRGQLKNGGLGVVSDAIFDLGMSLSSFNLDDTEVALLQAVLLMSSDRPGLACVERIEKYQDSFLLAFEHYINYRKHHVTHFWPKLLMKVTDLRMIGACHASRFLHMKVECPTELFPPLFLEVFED
Experiment: THR coactivator recruitment assay (LanthaScreen TR-FRET), THRβ
pEC50: −log10 of the molar value.
observation.type: pEC50

Please fill in: pEC50 reported for "CC(C)c1cc(Oc2c(Cl)cc(-n3nc(C#N)c(=O)[nH]c3=O)cc2Cl)nnc1Cl" = < 5.00

Please fill in: pEC50 reported for "CC(C)c1cc(=O)[nH]nc1Oc1c(F)cc(-n2nc(C#N)c(=O)[nH]c2=O)cc1Cl" = < 5.00

Please fill in: pEC50 reported for "Cc1c(C(C)C)c(Oc2c(Cl)cc(-n3nc(C#N)c(=O)[nH]c3=O)cc2Cl)n[nH]c1=O" = < 5.00

Please fill in: pEC50 reported for "CNc1nnc(Oc2c(Cl)cc(-n3nc(C#N)c(=O)[nH]c3=O)cc2Cl)cc1C(C)C" = 6.00 to 7.00

Please fill in: pEC50 reported for Cc1cc(-n2nc(C#N)c(=O)[nH]c2=O)cc(Cl)c1Oc1n[nH]c(=O)c2c1CC[C@H]2C (single isomer, unassigned) = > 7.00

Please fill in: pEC50 reported for [2H]c1c(Cl)c(Oc2n[nH]c(=O)c3c2C(C)CC3)c(Cl)c([2H])c1-n1nc(C#N)c(=O)[nH]c1=O (stereo not shown) = < 5.00

Please fill in: pEC50 reported for "CC(C)c1c(Cl)c(Oc2c(Cl)cc(-n3nc(C#N)c(=O)[nH]c3=O)cc2Cl)n[nH]c1=O" = < 5.00
